Value source: patent US11472769B2

Target: recombinant hMAO-B (Homo sapiens (Human), UniProt P27338)
Sequence (P27338 whole entry): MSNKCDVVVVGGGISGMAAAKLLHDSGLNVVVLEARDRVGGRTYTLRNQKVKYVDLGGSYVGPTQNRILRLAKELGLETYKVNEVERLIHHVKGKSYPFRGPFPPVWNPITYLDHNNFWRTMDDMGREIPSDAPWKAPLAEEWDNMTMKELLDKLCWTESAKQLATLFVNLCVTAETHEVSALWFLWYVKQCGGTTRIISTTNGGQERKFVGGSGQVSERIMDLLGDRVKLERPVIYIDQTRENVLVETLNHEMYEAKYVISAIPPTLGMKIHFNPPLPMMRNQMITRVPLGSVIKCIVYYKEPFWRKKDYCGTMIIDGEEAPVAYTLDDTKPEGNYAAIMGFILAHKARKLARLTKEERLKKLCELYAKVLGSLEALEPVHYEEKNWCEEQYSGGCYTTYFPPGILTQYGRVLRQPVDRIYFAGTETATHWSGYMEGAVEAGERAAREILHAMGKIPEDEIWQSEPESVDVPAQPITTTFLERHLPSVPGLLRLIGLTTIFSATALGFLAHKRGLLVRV
Test: MAO-B activity assay (MAO-Glo assay kit)
Details: 4 μM substrate, 30 mins pre-incubation
pIC50: −log10 of the molar value.
Measured property: pIC50

The cases that follow already have their pIC50 on record.
Compound: NC/C(=C\F)COc1ccc(S(=O)(=O)CC2CCN(C(=O)C3CC(F)(F)C3)CC2)cc1
pIC50: < 4.52
//
Compound: NC/C(=C\F)COc1ccc(S(=O)(=O)CC23CCC(NC(=O)C4CCC4)(CC2)CC3)cc1
pIC50: 4.52 to 5.00
//
Compound: COCS(=O)(=O)c1ccc(OC/C(=C/F)CN)cc1
pIC50: 4.52 to 5.00

Next:
Task item: Dear colleague, I am looking for the recorded pIC50 of the following compound: CC(C)NC(=O)C1CCC(CS(=O)(=O)c2ccc(OC/C(=C/F)CN)cc2)CC1 (stereo not shown)
Reply: > 5.00

---

This section presents molecules with their documented pIC50 values.
Molecular target: recombinant hSSAO (Homo sapiens (Human), UniProt Q16853)
Sequence (Q16853 whole entry): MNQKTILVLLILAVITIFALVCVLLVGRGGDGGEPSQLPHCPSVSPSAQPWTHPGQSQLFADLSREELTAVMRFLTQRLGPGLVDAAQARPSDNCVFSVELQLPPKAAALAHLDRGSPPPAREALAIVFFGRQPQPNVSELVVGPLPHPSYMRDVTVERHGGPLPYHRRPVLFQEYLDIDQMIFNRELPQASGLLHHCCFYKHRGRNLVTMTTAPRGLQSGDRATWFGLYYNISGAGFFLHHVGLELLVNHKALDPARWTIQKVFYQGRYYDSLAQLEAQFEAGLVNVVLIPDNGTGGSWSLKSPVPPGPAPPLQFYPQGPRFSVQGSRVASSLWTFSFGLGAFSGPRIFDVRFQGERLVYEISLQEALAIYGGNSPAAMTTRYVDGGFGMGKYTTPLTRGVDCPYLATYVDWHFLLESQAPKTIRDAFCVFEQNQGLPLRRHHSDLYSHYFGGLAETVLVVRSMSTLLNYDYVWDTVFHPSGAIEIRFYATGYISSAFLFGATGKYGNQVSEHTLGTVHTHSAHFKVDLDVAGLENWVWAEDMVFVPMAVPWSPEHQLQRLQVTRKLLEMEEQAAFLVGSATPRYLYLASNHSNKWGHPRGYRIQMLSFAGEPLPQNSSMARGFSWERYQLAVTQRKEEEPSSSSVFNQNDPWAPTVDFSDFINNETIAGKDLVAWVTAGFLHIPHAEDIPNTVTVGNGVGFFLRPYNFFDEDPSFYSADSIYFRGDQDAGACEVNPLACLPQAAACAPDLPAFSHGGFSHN
Assay: SSAO Activity Assay (MAO-Glo assay kit)
Assay type: biochemical
Conditions: 40 μM substrate, 30 mins pre-incubation
pIC50: −log10 of the molar value.

The cases that follow already have their pIC50 on record.
Molecule: CCN(CC(C)CS(=O)(=O)c1ccc(OC/C(=C/F)CN)cc1)C(=O)C(C)C (stereo not shown)
Tested on: recombinant hSSAO (Homo sapiens (Human), UniProt Q16853)
Measured property: pIC50
Observed result: 7.00 to 7.70
//
Molecule: NC/C(=C\F)COc1ccc(S(=O)(=O)CN2C(=O)CCc3ccccc32)cc1
Tested on: recombinant hSSAO (Homo sapiens (Human), UniProt Q16853)
Measured property: pIC50
Observed result: 7.00 to 7.70
//
Molecule: CC(C)N(C)C(=O)C(C)(C)CS(=O)(=O)c1ccc(OC/C(=C/F)CN)cc1
Tested on: recombinant hSSAO (Homo sapiens (Human), UniProt Q16853)
Measured property: pIC50
Observed result: 6.30 to 7.00

Task item: Value wanted: pIC50 (recombinant hSSAO (Homo sapiens (Human), UniProt Q16853)) of entry CC1(NC(=O)C23CCC(CS(=O)(=O)c4ccc(OC/C(=C/F)CN)cc4)(CC2)CC3)CC1
Reply: > 7.70

---

Molecular target: recombinant hSSAO (Homo sapiens (Human))
Assay: SSAO Activity Assay (MAO-Glo assay kit)
Conditions: 40 μM substrate, 30 mins pre-incubation
Description: The biological activities of the compounds of the present application can be assessed with methods and assays known in the art. For example, the potency of the compounds of the present application can be evaluated with an SSAO Activity Assay. […] The IC50 can be calculated, for example, by fitting the dose response curve using a 4-parameter non-linear regression routine. Amine oxidase activity of recombinant hSSAO, hMAO-A, and hMAO-B isoforms are measured using the MAO-Glo assay kit (Promega, V1402). […]
pIC50: −log10 of the molar value.
Measured property: pIC50

Molecule: CC(C)NC(=O)C1CCC(CS(=O)(=O)c2ccc(OC/C(=C/F)CN)cc2)CC1 (stereo not shown)
Measured property: pIC50
Observed result: 7.00 to 7.70

Task item: Dear colleague, I am looking for the recorded pIC50 of the following molecule: CC(C)n1ccc(CS(=O)(=O)c2ccc(OC/C(=C/F)CN)cc2)cc1=O
Reply: 7.00 to 7.70

Task item: What would you report for CC1(C)COCC(=O)N1CS(=O)(=O)c1ccc(OC/C(=C/F)CN)cc1 ?
Reply: 7.00 to 7.70

Task item: What would you report for NC/C(=C\F)COc1ccc(S(=O)(=O)CN2CCC3(CCCC3)C2=O)c(F)c1 ?
Reply: 6.30 to 7.00
